# experimental-system: T1, DFNB31_3, Q9P202
# T1 sequence (Q9P202 811-907, limits assumed, looked up): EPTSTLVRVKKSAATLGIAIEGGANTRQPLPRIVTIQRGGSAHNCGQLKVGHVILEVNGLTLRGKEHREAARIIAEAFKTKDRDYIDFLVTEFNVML
# assay-explanation: holdup assay
# Parameters: key: below the threshold = too weak to quantify, mostly under pKd 3.1 to 4
# condition: plain residues with an end cap or a label only (N-terminal biotin on a linker: ado-ado)
measurement-name: pKd

These solved cases illustrate the format of a correct answer.
[
  {
    "binder": "MQHQRTHTRV [ZSCAN30, Q86W11]",
    "pKd": "below the threshold"
  },
  {
    "binder": "REEPDHSTEV [CCRL2, O00421]",
    "pKd": "below the threshold"
  },
  {
    "binder": "NIAESLESLV [PTPRZ1, P23471]",
    "pKd": "below the threshold"
  },
  {
    "binder": "NTLNRKTTPV [CACNG8, Q8WXS5]",
    "pKd": "below the threshold"
  },
  {
    "binder": "QLSFNTDTLC [ABCA2, Q9BZC7]",
    "pKd": "below the threshold"
  },
  {
    "binder": "LKDDELKTKL [SLCO1A2, P46721]",
    "pKd": "below the threshold"
  },
  {
    "binder": "VKRNSKETVV [MARCHF3, Q86UD3]",
    "pKd": 3.92
  }
]

Asked: I'd like to know its pKd. The binder in question is LPAVCYDIDI [PTTG2, Q9NZH5]
Given back: 3.9

Ref: paper PMC9482650
